Attribution: paper PMC8400806

- Experimental system: α-glucosidase enzyme (Saccharomyces cerevisiae, UniProt P53341)
- Construct: purchased Sigma-Aldrich, Munich, Germany
- Sequence (P53341 whole entry): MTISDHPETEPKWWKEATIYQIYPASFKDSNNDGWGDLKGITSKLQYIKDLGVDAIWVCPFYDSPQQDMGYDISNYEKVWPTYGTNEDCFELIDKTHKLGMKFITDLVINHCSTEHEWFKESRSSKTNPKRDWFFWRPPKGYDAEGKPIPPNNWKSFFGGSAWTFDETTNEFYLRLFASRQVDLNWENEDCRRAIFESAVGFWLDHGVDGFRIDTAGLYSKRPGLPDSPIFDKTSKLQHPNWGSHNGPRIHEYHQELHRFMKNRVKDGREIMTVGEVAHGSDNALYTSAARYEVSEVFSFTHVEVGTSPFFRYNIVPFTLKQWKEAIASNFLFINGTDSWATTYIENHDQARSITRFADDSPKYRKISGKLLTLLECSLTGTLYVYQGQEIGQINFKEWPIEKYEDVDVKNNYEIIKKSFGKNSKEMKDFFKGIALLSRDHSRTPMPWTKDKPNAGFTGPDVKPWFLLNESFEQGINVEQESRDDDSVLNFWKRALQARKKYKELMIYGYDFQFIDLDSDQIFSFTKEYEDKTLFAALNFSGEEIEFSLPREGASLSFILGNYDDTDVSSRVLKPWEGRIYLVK
- Procedure summary: biochemical
- Format: biochemical
- Measurement context: S. cerevisiae enzyme 0.5 U/mL, phosphate buffer pH 6.8, 37 °C, triplicate; read-out: IC50 α-glucosidase inhibition
Quantity name: IC50 (µM)
Return type: number; implicit unit µM.

Entry under review: O=C(C[n+]1cn(Cc2ccccc2)c2ccccc21)Nc1ccc(Br)cc1 . Reported IC50?
198
